All figures here come from paper PMC9103758.

target: VRAC (Homo sapiens); assay: cell-based; conditions: VRAC IC50, YFP fluorescence quenching, LN215 cells, hypotonic solution 5 min, n = 4
READOUT_KIND: pIC50
Units for pIC50: none; it is -log10 of a concentration expressed in mol/L.

Ask: Returns the measured pIC50 for the input compound. Input: O=c1oc2ccccc2c(O)c1C(c1ccncc1)c1c(O)c2ccccc2oc1=O [VI-108]
Reply: 4.77

Ask: Look up pIC50 for this compound: O=c1oc2ccccc2c(O)c1C(c1ccc(Cl)c([N+](=O)[O-])c1)c1c(O)c2ccccc2oc1=O [VI-102]
Reply: 6.10

Ask: I have this compound here, CCN(CC)c1ccc(C(c2c(O)c3ccccc3oc2=O)c2c(O)c3ccccc3oc2=O)cc1 [VI-111] , and I need its recorded pIC50.
Reply: 5.54

Ask: Look up pIC50: COc1ccc(C(c2c(O)c3ccccc3oc2=O)c2c(O)c3ccccc3oc2=O)cc1OC [VI-118]
Reply: 5.40

Ask: pIC50 lookup needed for O=c1oc2ccccc2c(O)c1C(c1cc([N+](=O)[O-])c(Cl)cc1Cl)c1c(O)c2ccccc2oc1=O [VI-103] , thanks.
Reply: 5.48

Ask: Item O=c1oc2ccccc2c(O)c1C(c1cccc([N+](=O)[O-])c1)c1c(O)c2ccccc2oc1=O [VI-105] has what recorded pIC50?
Reply: 5.31

Ask: Recorded pIC50 of O=c1oc2ccccc2c(O)c1C(c1cc([N+](=O)[O-])ccc1Cl)c1c(O)c2ccccc2oc1=O [VI-101] , please.
Reply: 5.48

Ask: Which value of pIC50 has been reported for O=c1oc2ccccc2c(O)c1C(c1cc2c(cc1[N+](=O)[O-])OCO2)c1c(O)c2ccccc2oc1=O [VI-114] in the records?
Reply: 4.97

###

target: VRAC (Homo sapiens); assay: cell-based; conditions: VRAC IC50, YFP fluorescence quenching, LN215 cells, hypotonic solution 5 min, n = 4
Classify: 1 when IC50 is strictly less than 2 µM; 0 when IC50 is not.

Ask: Item `O=c1oc2ccccc2c(O)c1C(c1ccccc1Cl)c1c(O)c2ccccc2oc1=O` : IC50 beneath 2 µM, strictly?
Reply: 1

Ask: Dear colleague, could you confirm whether IC50 of `CCOc1cc(C(c2c(O)c3ccccc3oc2=O)c2c(O)c3ccccc3oc2=O)ccc1O` falls below 2 µM? Thanks.
Reply: 0

Ask: Is 2 µM strictly greater than the compound's reported IC50? compound: `O=c1oc2ccccc2c(O)c1C(c1ccc(O)c(O)c1)c1c(O)c2ccccc2oc1=O`
Reply: 0

Ask: Consider `CCOc1ccc(C(c2c(O)c3ccccc3oc2=O)c2c(O)c3ccccc3oc2=O)cc1OC` . Does its IC50 lie strictly below 2 µM?
Reply: 0

Ask: Bench note: check whether `O=c1oc2ccccc2c(O)c1C(c1ccc2c(c1)OCO2)c1c(O)c2ccccc2oc1=O` shows IC50 below 2 µM
Reply: 1

###

molecular target: VRAC (Homo sapiens); assay: cell-based; details: VRAC IC50 in the presence of 10% FBS, LN215 cells, medium containing 10% FBS, 5 min
READOUT_KIND: IC50 (µM)
Unit µM implied. Number only.

Ask: // lookup IC50 for COc1cccc(C(c2c(O)c3ccccc3oc2=O)c2c(O)c3ccccc3oc2=O)c1O [VI-116]
Reply: 6.89

###

target: VRAC in HeLa cells (Homo sapiens, UniProt Q8IWT6); construct: endogenous in cells
Sequence (Q8IWT6 whole entry): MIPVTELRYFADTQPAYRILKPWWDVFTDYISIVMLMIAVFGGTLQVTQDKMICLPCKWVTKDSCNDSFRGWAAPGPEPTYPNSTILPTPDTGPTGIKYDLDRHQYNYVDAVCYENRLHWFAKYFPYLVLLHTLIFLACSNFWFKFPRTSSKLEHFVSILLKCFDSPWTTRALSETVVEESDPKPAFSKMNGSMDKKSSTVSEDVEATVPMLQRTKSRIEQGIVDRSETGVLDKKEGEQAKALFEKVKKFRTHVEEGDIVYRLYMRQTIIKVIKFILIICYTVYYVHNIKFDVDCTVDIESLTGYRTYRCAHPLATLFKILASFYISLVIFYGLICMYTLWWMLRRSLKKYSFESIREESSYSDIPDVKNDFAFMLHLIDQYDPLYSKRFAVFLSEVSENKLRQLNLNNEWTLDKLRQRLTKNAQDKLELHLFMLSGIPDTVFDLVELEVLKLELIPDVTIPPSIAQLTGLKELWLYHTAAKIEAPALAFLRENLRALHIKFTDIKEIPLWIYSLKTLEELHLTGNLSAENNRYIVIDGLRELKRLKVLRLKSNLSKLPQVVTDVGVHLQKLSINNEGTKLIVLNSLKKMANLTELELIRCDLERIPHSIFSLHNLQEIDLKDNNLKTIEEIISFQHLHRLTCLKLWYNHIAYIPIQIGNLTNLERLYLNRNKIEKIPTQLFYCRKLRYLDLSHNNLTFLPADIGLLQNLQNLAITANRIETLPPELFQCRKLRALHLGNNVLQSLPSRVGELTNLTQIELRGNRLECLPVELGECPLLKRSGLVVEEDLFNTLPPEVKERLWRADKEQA
READOUT_KIND: IC50 (µM)
Give the quantity in µM, number only.

Ask: Form field: reported IC50 of `COc1cccc(C(c2c(O)c3ccccc3oc2=O)c2c(O)c3ccccc3oc2=O)c1O`
Reply: 1.2

###

target: VRAC (Homo sapiens); details: read-out: VRAC IC50; YFP fluorescence quenching, LN215 cells, hypotonic solution 5 min, n = 4
READOUT_KIND: IC50 (µM)
Use µM as the unit, but write only the number.

Ask: Given the entry `O=c1oc2ccccc2c(O)c1C(c1ccccc1)c1c(O)c2ccccc2oc1=O` , what IC50 was observed with VRAC (Homo sapiens)?
Reply: 103

###

molecular target: ANO1 (Homo sapiens, UniProt Q5XXA6, DEL476-501); construct: The YFP assay uses FRT-ANO1-YFP cells, which also carry the halide sensor; experiment: YFP fluorescence quenching assay for ANO1 activity in FRT-ANO1 cells; settings: ATP 100 μM, n = 4
READOUT_KIND: IC50 (µM)
Write it as a number; the unit µM goes unstated.

Ask: # query: IC50 of entry CCOc1ccc(C(c2c(O)c3ccccc3oc2=O)c2c(O)c3ccccc3oc2=O)cc1OC [VI-119]
Reply: 4.9

Ask: Could you share which IC50 value was measured for O=c1oc2ccccc2c(O)c1C(c1cc([N+](=O)[O-])ccc1Cl)c1c(O)c2ccccc2oc1=O [VI-101] ?
Reply: 3.2

Ask: Endpoint output: IC50 of O=c1oc2ccccc2c(O)c1C(c1cc2c(cc1[N+](=O)[O-])OCO2)c1c(O)c2ccccc2oc1=O [VI-114] . Value?
Reply: 20.3

Ask: Which measured IC50 value corresponds to O=c1oc2ccccc2c(O)c1C(c1cc([N+](=O)[O-])cc([N+](=O)[O-])c1Cl)c1c(O)c2ccccc2oc1=O [VI-104] ?
Reply: 37.9

Ask: Param item = O=c1oc2ccccc2c(O)c1C(c1ccncc1)c1c(O)c2ccccc2oc1=O [VI-108] ; retrieve measured IC50.
Reply: 34.7

Ask: For CN(C)c1ccc(C(c2c(O)c3ccccc3oc2=O)c2c(O)c3ccccc3oc2=O)cc1[N+](=O)[O-] [VI-106] , what is its reported IC50?
Reply: 3.6

Ask: Requested field: IC50. Item: O=c1oc2ccccc2c(O)c1C(c1ccc(Cl)c([N+](=O)[O-])c1)c1c(O)c2ccccc2oc1=O [VI-102]
Reply: 3

Ask: I have this molecule here, CCN(CC)c1ccc(C(c2c(O)c3ccccc3oc2=O)c2c(O)c3ccccc3oc2=O)cc1 [VI-111] , and I need its recorded IC50.
Reply: 3.2

Ask: Please look up its IC50: COc1cc(OC)cc(C(c2c(O)c3ccccc3oc2=O)c2c(O)c3ccccc3oc2=O)c1 [VI-120]
Reply: 3.9

Ask: Tell me the measured IC50 of O=c1oc2ccccc2c(O)c1C(c1ccccc1)c1c(O)c2ccccc2oc1=O [VI-107] , please.
Reply: 95.2

Ask: Item COc1cccc(C(c2c(O)c3ccccc3oc2=O)c2c(O)c3ccccc3oc2=O)c1O [VI-116] has what recorded IC50?
Reply: 39.1

Ask: Quick check: IC50 of CC(C)Oc1ccc(C(c2c(O)c3ccccc3oc2=O)c2c(O)c3ccccc3oc2=O)cc1 [VI-112] ?
Reply: 0.8

Ask: Which value of IC50 has been reported for O=c1oc2ccccc2c(O)c1C(c1ccccc1Cl)c1c(O)c2ccccc2oc1=O [VI-109] in the records?
Reply: 2

Ask: Quick one: IC50 of COc1ccc(C(c2c(O)c3ccccc3oc2=O)c2c(O)c3ccccc3oc2=O)cc1OC [VI-118] ?
Reply: 14.2

Ask: Would you kindly share the measured IC50 for CCOc1cc(C(c2c(O)c3ccccc3oc2=O)c2c(O)c3ccccc3oc2=O)ccc1O [VI-117] ?
Reply: 14.2

Ask: // lookup IC50 for O=c1oc2ccccc2c(O)c1C(c1ccccc1F)c1c(O)c2ccccc2oc1=O [VI-110]
Reply: 4.8

Ask: Need IC50 of O=c1oc2ccccc2c(O)c1C(c1ccc2c(c1)OCO2)c1c(O)c2ccccc2oc1=O [VI-113] , thanks.
Reply: 3.9

###

Give IC50 for every item shown.
target: VRAC (Homo sapiens, UniProt Q8IWT6); assay: cell-based; settings: VRAC IC50, YFP fluorescence quenching, LN215 cells, hypotonic solution 5 min, n = 4
Sequence (Q8IWT6 whole entry): as above
Express it in µM; write the number only.

Ask: Consider the compound COc1cc(OC)cc(C(c2c(O)c3ccccc3oc2=O)c2c(O)c3ccccc3oc2=O)c1 [VI-120] and give its measured IC50.
Reply: 9.3

Ask: I am curious: what IC50 value has been reported for CC(C)Oc1ccc(C(c2c(O)c3ccccc3oc2=O)c2c(O)c3ccccc3oc2=O)cc1 [VI-112] ?
Reply: 1.4

Ask: Entry CN(C)c1ccc(C(c2c(O)c3ccccc3oc2=O)c2c(O)c3ccccc3oc2=O)cc1[N+](=O)[O-] [VI-106] : reported IC50 = ?
Reply: 1.3

Ask: Recorded IC50 of O=c1oc2ccccc2c(O)c1C(c1cc([N+](=O)[O-])cc([N+](=O)[O-])c1Cl)c1c(O)c2ccccc2oc1=O [VI-104] , please.
Reply: 30

###

Could you please report measured IC50 for the items listed next?
target: hERG K+ channel (Homo sapiens, UniProt Q12809); construct: called HEK293; experiment: FluxOR thallium flux assay in HEK293T cells expressing hERG; settings: thallium flux, HEK293T cells expressing hERG, n = 6
Sequence (Q12809 whole entry): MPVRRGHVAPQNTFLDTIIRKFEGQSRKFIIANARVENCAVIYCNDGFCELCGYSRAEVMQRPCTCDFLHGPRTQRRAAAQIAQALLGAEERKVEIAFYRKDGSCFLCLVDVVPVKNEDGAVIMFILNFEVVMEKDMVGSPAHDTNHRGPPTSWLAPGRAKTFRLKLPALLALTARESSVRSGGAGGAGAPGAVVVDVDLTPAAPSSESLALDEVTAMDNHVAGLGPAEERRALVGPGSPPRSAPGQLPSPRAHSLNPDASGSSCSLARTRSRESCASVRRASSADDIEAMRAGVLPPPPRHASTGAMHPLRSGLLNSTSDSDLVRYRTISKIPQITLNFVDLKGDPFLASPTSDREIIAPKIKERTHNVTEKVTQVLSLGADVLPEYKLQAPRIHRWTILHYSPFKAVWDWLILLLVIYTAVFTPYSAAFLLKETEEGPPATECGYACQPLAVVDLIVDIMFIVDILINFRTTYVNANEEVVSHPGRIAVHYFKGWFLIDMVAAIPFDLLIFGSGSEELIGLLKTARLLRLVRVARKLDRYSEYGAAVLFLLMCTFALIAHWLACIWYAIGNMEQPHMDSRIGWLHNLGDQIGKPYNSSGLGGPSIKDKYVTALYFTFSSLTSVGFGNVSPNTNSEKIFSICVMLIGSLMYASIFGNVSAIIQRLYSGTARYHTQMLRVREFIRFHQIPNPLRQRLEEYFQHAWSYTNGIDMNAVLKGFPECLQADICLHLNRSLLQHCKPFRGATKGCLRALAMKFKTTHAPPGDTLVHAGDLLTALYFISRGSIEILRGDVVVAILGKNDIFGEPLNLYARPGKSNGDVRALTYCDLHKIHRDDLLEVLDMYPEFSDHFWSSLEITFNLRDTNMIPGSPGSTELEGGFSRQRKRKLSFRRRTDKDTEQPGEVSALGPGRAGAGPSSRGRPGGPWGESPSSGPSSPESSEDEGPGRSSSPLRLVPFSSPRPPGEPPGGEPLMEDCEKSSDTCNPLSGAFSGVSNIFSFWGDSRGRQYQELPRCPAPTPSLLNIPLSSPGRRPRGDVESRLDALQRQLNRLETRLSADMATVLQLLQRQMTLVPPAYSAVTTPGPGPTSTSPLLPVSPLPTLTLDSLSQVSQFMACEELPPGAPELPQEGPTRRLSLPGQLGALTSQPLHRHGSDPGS
Respond numerically; units are µM and should not be typed.

Ask: Find the recorded IC50 belonging to `COc1cccc(C(c2c(O)c3ccccc3oc2=O)c2c(O)c3ccccc3oc2=O)c1O` and report it.
Reply: 89.6

Ask: Give its IC50 value. Item: CCCCC1(C2CCCC2)Cc2cc(OCCCC(=O)O)c(Cl)c(Cl)c2C1=O (centres unmarked)
Reply: 11.4
